B1: minF1; the commonest letter at each place (parent)
chain: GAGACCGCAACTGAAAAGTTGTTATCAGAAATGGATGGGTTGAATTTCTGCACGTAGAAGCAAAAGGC

# Variants of: B1
# Assay details: fraction ligated after 30 min (ligated reads / total reads); higher = more ligase activity
# Test settings: with F1*subA RNA substrate (template-directed ligation), 42 °C
Measured quantity: fraction ligated
Write no unit; give the number alone.

Worked set:
Lookup result for A24G A30G ; measured fraction ligated: 0.185

Lookup result for A31T A44G ; measured fraction ligated: 0.82

Lookup result for A31C G34A ; measured fraction ligated: 0.055

***
Lookup result for A35G A43C ; measured fraction ligated: 0.00434

Lookup result for G28T A44G ; measured fraction ligated: 0.759

Lookup result for A29T T36G ; measured fraction ligated: 0.0504

Lookup result for A24G A35T ; measured fraction ligated: 0.00297

Lookup result for T23A T32G ; measured fraction ligated: 0.000962

Lookup result for T23A G42T ; measured fraction ligated: 0.003

Lookup result for A24G T36C ; measured fraction ligated: 0.0933
